Target: GHB high-affinity binding site (Rattus norvegicus)
Assay: Displacement of [3H]NCS-382 from GHB high-affinity binding site in rat brain homogenate
measured-quantity: pKi
// no unit string in output, number only

INSERT INTO results (compound, numeric_readout) VALUES
  ('O=C([O-])CCC(O)c1ccc(OCc2ccco2)cc1.[Li+] (racemic)', 6.72),
  ('O=C([O-])CCC(O)c1ccc(OCc2cccc(I)c2)cc1.[Li+] (racemic)', 7.12),
  ('O=C([O-])CCC(O)c1ccc(/C=C/c2cccc(Cl)c2)cc1.[Li+] (stereo not given)', 7.11),
  ('O=C([O-])CCC(O)c1ccc(OCc2ccc(F)cc2)cc1.[Li+] (racemic)', 7.03),
  ('O=C(O)CCC(=O)c1ccc(CCc2ccccc2)cc1', 5.07);

So, `O=C(O)CCCc1ccc(CCc2ccccc2)cc1` ? Its pKi was 6.01

Field pKi (entry O=C([O-])CCC(O)c1ccc(OCc2ccc(I)cc2)cc1.[Li+] (racemic) ) reads 7.21

The value of pKi measured for the compound O=C([O-])CCC(O)c1ccc(/C=C/c2ccncc2)cc1.[Li+] (stereo not given) turned out to be 6.49

Entry O=C([O-])CCC(O)c1ccc(OCc2ccc(Br)cc2)cc1.[Li+] (racemic) , pKi reported as 7.48

Reported pKi of Cc1ncsc1/C=C/c1ccc(C(O)CCC(=O)[O-])cc1.[Li+] (stereo not given) : 6.62

###

Molecular target: GHB high-affinity binding site (Rattus norvegicus)
Test: Displacement of [3H]NCS-382 from GHB high-affinity binding site in rat brain homogenate
Listing: pKi of selected molecules
Quick note: pKi means taking -log10 of the concentration in moles per liter.

Answered cases to consult:
INSERT INTO assay_data (molecule, measured_quantity, numeric_readout) VALUES
  ('O=C([O-])CC[C@H](O)c1ccc(OCc2ccccc2I)cc1.[Li+]', 'pKi', 6.66),
  ('O=C(O)CCC(O)c1ccc(OCc2cccc(Br)c2)cc1 (racemic)', 'pKi', 7.29),
  ('O=C([O-])CCC(O)c1ccc(OCc2cccs2)cc1.[Li+] (racemic)', 'pKi', 7.02),
  ('O=C(O)CCC(=O)c1ccc(CCc2ccccc2)cc1', 'pKi', 5.06);

Kindly note the recorded pKi for O=C([O-])CCC(O)c1ccc(OCc2ccccc2Br)cc1.[Li+] (racemic) , which is 7.28

So for O=C([O-])CCC(O)c1ccc(/C=C/c2ccncc2)cc1.[Li+] (stereo not given) , the logged pKi turned out to be 6.47

Query O=C([O-])CCC(O)c1ccc(CCc2ccccc2)cc1.[Li+] (racemic) yields pKi of 7.12

// recorded pKi for O=C([O-])CCC(O)c1ccc(/C=C/c2ccccc2)cc1.[Li+] (stereo not given) : 6.80

Query COc1ccc(/C=C/c2ccc(C(O)CCC(=O)[O-])cc2)cc1.[Li+] (stereo not given) yields pKi of 6.74

Entry Cc1ncsc1/C=C/c1ccc(C(O)CCC(=O)[O-])cc1.[Li+] (stereo not given) ; pKi = 6.60

###

Target: GHB high-affinity binding site (Rattus norvegicus)
Assay: Displacement of [3H]NCS-382 from GHB high-affinity binding site in rat brain homogenate
Reported values of pKi for individual entries
Recall that pKi is obtained by taking minus log10 of the concentration measured in molar.

Worked cases, pKi given:
INSERT INTO assay_data (molecule, measured_quantity, numeric_readout) VALUES
  ('O=C([O-])CCC(O)c1ccc(/C=C/c2ccccc2Cl)cc1.[Li+] (centres undefined)', 'pKi', 7.27),
  ('O=C([O-])CCC(O)c1ccc(OCc2ccccc2)cc1.[Li+] (racemic)', 'pKi', 6.96);

Entry O=C([O-])CCC(O)c1ccc(OCc2ccccc2F)cc1.[Li+] (racemic) — recorded pKi = 7.39

Query O=C([O-])CCC(O)c1ccc(OCc2ccc(Br)cc2)cc1.[Li+] (racemic) yields pKi of 7.47

The molecule listed as O=C([O-])CCC(O)c1ccc(OCc2ccccc2I)cc1.[Li+] (racemic) has a reported pKi of 7.22

pKi reading for O=C([O-])CC[C@@H](O)c1ccc(OCc2ccccc2I)cc1.[Li+] (racemic) : 7.66

pKi in this record for O=C([O-])CCC(O)c1ccc(OCc2cccc(F)c2)cc1.[Li+] (racemic) : 7.20

The molecule identified as O=C([O-])CCC(O)c1ccc(/C=C/c2ccccn2)cc1.[Li+] (centres undefined) registered its pKi at 6.64

Kindly note the recorded pKi for O=C([O-])CCC(O)c1ccc(/C=C/c2cccc(Cl)c2)cc1.[Li+] (centres undefined) , which is 7.10

Recorded pKi (molecule O=C([O-])CCC(O)c1ccc(OCc2cccc(I)c2)cc1.[Li+] (racemic) ): 7.12

Briefly, pKi measured for O=C([O-])CCC(O)c1ccc(-c2ccccc2)cc1.[Li+] (racemic) : 6.36

Recorded result, O=C([O-])CCC(O)c1ccc(OCc2ccco2)cc1.[Li+] (racemic) , pKi: 6.70

For record `O=C(O)CCC(=O)c1ccc(Br)cc1` the listed pKi is 4.77

Value of measured pKi for the entry O=C([O-])CCC(O)c1ccc(Cc2ccccc2)cc1.[Li+] (racemic) : 6.92
